experimental_system: human F508del-CFTR (Homo sapiens, UniProt P13569, DEL508-508)
Sequence (P13569 with tags, fused parts or gaps DEL508-508): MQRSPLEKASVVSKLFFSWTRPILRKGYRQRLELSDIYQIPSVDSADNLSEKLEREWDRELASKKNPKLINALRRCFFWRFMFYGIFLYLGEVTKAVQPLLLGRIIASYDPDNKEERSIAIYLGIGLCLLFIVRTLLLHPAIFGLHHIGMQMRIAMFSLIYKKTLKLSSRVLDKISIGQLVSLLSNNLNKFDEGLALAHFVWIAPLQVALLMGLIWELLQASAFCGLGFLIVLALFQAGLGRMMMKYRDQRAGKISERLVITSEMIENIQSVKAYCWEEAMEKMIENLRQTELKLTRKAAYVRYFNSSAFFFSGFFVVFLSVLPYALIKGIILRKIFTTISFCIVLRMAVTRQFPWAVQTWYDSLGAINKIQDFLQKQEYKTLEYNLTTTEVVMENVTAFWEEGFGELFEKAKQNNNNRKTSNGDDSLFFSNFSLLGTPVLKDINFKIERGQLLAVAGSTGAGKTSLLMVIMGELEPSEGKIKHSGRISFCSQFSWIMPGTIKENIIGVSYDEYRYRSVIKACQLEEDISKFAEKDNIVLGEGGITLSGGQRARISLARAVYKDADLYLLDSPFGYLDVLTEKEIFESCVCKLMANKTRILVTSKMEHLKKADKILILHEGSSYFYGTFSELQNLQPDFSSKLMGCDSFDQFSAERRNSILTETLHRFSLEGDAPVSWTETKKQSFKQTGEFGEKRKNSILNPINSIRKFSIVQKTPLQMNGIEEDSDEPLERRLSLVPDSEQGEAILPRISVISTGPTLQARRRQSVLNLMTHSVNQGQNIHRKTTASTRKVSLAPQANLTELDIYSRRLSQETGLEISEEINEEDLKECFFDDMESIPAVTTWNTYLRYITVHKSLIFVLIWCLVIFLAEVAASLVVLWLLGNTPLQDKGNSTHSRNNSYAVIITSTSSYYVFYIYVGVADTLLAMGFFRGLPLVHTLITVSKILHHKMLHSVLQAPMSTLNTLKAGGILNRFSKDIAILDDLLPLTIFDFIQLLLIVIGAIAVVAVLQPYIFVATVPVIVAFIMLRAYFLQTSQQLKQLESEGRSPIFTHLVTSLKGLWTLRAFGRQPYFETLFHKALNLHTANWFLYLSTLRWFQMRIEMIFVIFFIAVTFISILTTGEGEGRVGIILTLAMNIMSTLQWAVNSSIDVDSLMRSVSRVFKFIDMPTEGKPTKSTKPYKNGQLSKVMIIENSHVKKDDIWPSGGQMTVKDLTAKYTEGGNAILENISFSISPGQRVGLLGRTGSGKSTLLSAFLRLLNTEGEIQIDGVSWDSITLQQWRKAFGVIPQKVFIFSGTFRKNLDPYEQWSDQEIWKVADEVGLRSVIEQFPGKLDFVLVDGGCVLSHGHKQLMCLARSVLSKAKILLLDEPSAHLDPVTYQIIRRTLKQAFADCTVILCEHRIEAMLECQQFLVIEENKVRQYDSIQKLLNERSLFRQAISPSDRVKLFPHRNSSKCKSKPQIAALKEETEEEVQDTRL
protocol: F508del-CFTR cell surface expression (corrector activity), DiscoveRx ß-galactosidase complementation chemiluminescence assay in recombinant U2OS cell line;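 note: U2OS cells co-expressing ProLink-tagged F508del-CFTR and a membrane-anchored enzyme acceptor, where more surface CFTR restores β-galactosidase activity measured by chemiluminescence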
condition: EC50, F508del-CFTR cell surface expression, U2OS cells, 16h compound incubation; geomean values
metric: pEC50
Please express pEC50 as -log10 of the molar concentration.

Illustrative cases are given below, each with its answer.
record_smiles	pEC50
COc1cc(CCNC(=O)[C@@H]2CC(=O)N(C)[C@@H](CC(C)C)C(=O)N3CCN(CC(C)C)C[C@@H]3C(=O)N[C@H](Cc3ccccc3)COc3ccc4ccccc4c3C(=O)N2)cc(OC)c1	7.09
COc1cccc(CCNC(=O)[C@@H]2CC(=O)N(C)[C@@H](CC(C)C)C(=O)N(C)C3(CC3)C(=O)N[C@H](Cc3ccccc3)COc3ccc(OC)nc3C(=O)N2)c1	6.04
CC(C)C[C@H]1C(=O)N2CC[C@@H](c3ccccc3)C[C@@H]2C(=O)N[C@H](Cc2ccccc2)COc2cnc3ccccc3c2C(=O)N[C@H](C(=O)NCCc2cc(C3CC3)no2)CC(=O)N1C	7.21
COc1cccc(CCNC(=O)[C@@H]2CC(=O)N(C)[C@@H](CC(C)C)C(=O)N3CCCC[C@@H]3C(=O)N[C@H](Cc3ccccc3)COc3cc(OC)cc(OC)c3C(=O)N2)c1	6.54

// below: pEC50 requested for another compound
Kindly note: human F508del-CFTR (Homo sapiens, UniProt P13569, DEL508-508), Cc1cc(CCNC(=O)[C@@H]2CC(=O)N(C)[C@@H](CC(C)C)C(=O)N(C[C@H]3CCCC(C)(C)O3)CC(=O)N[C@H](Cc3ccccc3)COc3cnc4ccccc4c3C(=O)N2)on1 , pEC50 value reported: 6.15
